I'd appreciate it if you could supply IC50 values for the items below.
target: human TrkA (Homo sapiens, UniProt P04629); construct: purchased Lifetechnologies PV3144; assay: Test Example 2: Human TrkA Inhibition Assay; type: biochemical; details: human TrkA inhibition, Test Example 2; class symbols A/B/C; read-out: IC50_nM
Sequence (P04629 33-796): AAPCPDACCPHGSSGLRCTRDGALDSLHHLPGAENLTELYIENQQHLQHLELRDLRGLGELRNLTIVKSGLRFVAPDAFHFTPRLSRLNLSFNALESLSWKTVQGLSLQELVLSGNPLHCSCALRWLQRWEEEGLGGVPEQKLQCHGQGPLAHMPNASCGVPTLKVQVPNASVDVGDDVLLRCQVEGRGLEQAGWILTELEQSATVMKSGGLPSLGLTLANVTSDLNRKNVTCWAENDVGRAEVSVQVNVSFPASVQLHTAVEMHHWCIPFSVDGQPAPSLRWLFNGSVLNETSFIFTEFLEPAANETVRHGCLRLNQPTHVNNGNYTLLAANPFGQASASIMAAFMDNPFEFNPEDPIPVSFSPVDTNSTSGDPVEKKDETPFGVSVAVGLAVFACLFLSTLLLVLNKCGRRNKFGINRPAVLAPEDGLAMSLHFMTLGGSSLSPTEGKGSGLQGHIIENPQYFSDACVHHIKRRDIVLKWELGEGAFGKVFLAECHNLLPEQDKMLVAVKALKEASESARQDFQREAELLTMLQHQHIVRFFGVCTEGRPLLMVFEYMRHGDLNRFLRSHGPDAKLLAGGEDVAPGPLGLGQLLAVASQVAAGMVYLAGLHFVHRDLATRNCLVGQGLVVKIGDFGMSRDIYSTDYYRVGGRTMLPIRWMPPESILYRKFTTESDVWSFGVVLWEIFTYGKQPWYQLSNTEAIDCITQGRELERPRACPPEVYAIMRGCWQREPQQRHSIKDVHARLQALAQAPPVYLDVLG

Query IC50 on human TrkA (Homo sapiens, UniProt P04629) for Cc1c(-c2cnn(C)c2)nn(-c2ccccc2)c1NC(=O)N[C@@H]1CC2(CC(O)C2)C[C@H]1c1ccccc1 (mixture of isomers)
> 1000 nM

Form entry - test system: human TrkA (Homo sapiens, UniProt P04629); read-out: IC50; molecule: COCOC1C[C@@H](NC(=O)Nc2c(C)c(-c3cnn(C)c3)nn2-c2ccccc2)[C@H](c2ccccc2)C1 (relative stereo)
100 to 1000 nM

Enter reported IC50 observed with human TrkA (Homo sapiens, UniProt P04629) for Cc1c(-c2cnn(C)c2)nn(-c2ccccc2)c1NC(=O)N[C@@H]1C[C@@H](C)N[C@H]1c1ccc(F)c(F)c1 (racemic)
> 1000 nM

Which IC50 is reported with human TrkA (Homo sapiens, UniProt P04629) for this entry: COCCN1C[C@@H](NC(=O)Nc2c(C)c(-c3cnn(C)c3)nn2-c2ccccc2)[C@H](c2ccc3cccnc3c2)C1 (racemic) ?
> 1000 nM

Requested read-out IC50, target or system human TrkA (Homo sapiens, UniProt P04629), entry Cc1c(-c2cnn(C)c2)nn(-c2ccccc2)c1NC(=O)N[C@@H]1CN(C(C)c2ccco2)C[C@H]1c1ccc(F)c(F)c1 (stereo partly shown)
< 100 nM

API: value(readout= IC50, system= human TrkA (Homo sapiens, UniProt P04629), query= Cc1c(-c2cnn(C)c2)nn(-c2ccccc2)c1NC(=O)N[C@@H]1CN(Cc2ccccc2)C[C@H]1C1CCCCC1 (racemic) )
> 1000 nM

Return IC50 measured with human TrkA (Homo sapiens, UniProt P04629) given this molecule: COCCC1C[C@@H](NC(=O)Nc2c(C)c(-c3cnn(C)c3)nn2-c2ccccc2)[C@H](c2ccccc2)C1 (stereo partly shown) [Compound I-88]
< 100 nM
